Biological target: Carbonic anhydrase 7 (Homo sapiens, UniProt P43166)
Sequence (P43166 whole entry): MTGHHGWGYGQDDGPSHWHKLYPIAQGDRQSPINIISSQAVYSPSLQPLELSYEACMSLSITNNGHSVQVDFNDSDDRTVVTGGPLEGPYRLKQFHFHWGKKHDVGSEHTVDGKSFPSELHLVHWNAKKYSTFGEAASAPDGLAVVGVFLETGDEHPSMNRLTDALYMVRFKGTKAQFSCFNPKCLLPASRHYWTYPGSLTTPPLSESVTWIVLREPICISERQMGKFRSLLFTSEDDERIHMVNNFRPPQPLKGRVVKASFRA
Test: Inhibition of recombinant human carbonic anhydrase 7 preincubated with enzyme for 15 mins by phenol red dye based stopped flow CO2 hydration assay
pKi: −log10 of the molar value.
measurementLabel: pKi

INSERT INTO assay_data (smilestext, testvalue) VALUES
  ('CC1(C)O[C@H]2[C@H](O)CN(CCCCCCn3cc(CNc4ccc(S(N)(=O)=O)cc4)nn3)C[C@H]2O1', 8.13),
  ('CC1(C)O[C@H]2[C@H](O)[C@H]([C@H]3[C@H](O)[C@H]4OC[C@@H](O4)[C@H]3O)N(CCCCCCn3cc(CNc4ccc(S(N)(=O)=O)cc4)nn3)C[C@H]2O1', 7.51);
